Test system: Pseudoperonospora cubensis
PROCEDURE SUMMARY: Fungicidal activity against Pseudoperonospora cubensis infected in cucumber cv. Sagamihanjiro seedling assessed as reduction in leaf lesion after 4 days by pot test
Format: functional, organism-based
EC50: recorded values
All answers are understood in ppm, so give the number only.

Reference set, count: 2
INSERT INTO results (compound, data_value) VALUES
  ('Cc1ccc(/N=c2\nc(-c3ccccc3)n(C)s2)cc1', 60.2),
  ('Cn1s/c(=N/c2ccc(Br)cc2)nc1-c1ccc(Cl)cc1Cl', 131.1);

Return value of EC50 for input CCOc1n/c(=N\c2ccc(Cl)cc2)sn1C , no commentary.
308.1

Return value of EC50 for input Cn1s/c(=N/c2ccc(Cl)cc2)nc1Cc1ccccc1 , no commentary.
79.1

Return value of EC50 for input Cn1s/c(=N/c2ccc(Br)cc2)nc1-c1ccc(Cl)cc1 , no commentary.
12

Return value of EC50 for input Cn1s/c(=N/c2ccc(Cl)c(Cl)c2)nc1-c1ccc(Cl)cc1 , no commentary.
24.7

Return value of EC50 for input COc1ccc(-c2n/c(=N\c3ccc(Cl)cc3)sn2C)cc1 , no commentary.
132.7

Return value of EC50 for input CCCn1s/c(=N/c2ccc(C)cc2)nc1-c1ccccc1 , no commentary.
141.5

Return value of EC50 for input CCn1s/c(=N/c2cccc([N+](=O)[O-])c2)nc1-c1ccccc1 , no commentary.
63.1

Return value of EC50 for input COc1ccc(/N=c2\nc(-c3ccc(Cl)cc3)n(C)s2)cc1 , no commentary.
11

Return value of EC50 for input Cn1s/c(=N/c2cccc(Cl)c2)nc1-c1ccc(Cl)cc1 , no commentary.
25.9
